Where do the numbers come from? From paper PMC3042036.

Assay: Plasma and brain compound concentrations after i.p. administration to mice
Format: in vivo, mice (B6C3F1)
Conditions: male, B6C3F1, mouse, plasma, ip, 10 mg/kg

compound | unit_abbrev | concentration at 24 h
C/C(=C\c1csc(C)n1)[C@@H]1C[C@@H]2O[C@]2(C)CCC[C@H](C)[C@H](O)[C@@H](C)C(=O)C(C)(C)[C@@H](O)CC(=O)N1 [CNDR-90, ixabepilone, reference compound] | ng/mL | 41

###

Test: Plasma and brain compound concentrations after i.p. administration to mice
Type: in vivo, mice (B6C3F1)
Conditions: male, B6C3F1, mouse, brain, intraperitoneal, 3 mg/kg
experimental_readout: concentration at 10 days (ng/g)

compound | experimental_readout | readout_number
C/C1=C/C[C@@H](/C(C)=C/c2csc(C)n2)OC(=O)C[C@H](O)C(C)(C)C(=O)[C@H](C)[C@@H](O)[C@@H](C)CCC1 [CNDR-66, Epothilone D] | concentration at 10 days | 1.8

###

Assay: Plasma and brain compound concentrations after i.p. administration to mice
Assay type: in vivo, mice (B6C3F1)
Conditions: male, B6C3F1, mouse, brain, intraperitoneal, 3 mg/kg

structure_notation | concentration at 7 days [ng/g]
C/C1=C/C[C@@H](/C(C)=C/c2csc(C)n2)OC(=O)C[C@H](O)C(C)(C)C(=O)[C@H](C)[C@@H](O)[C@@H](C)CCC1 | 8.3

###

Biological target: P-gp (human MDR1) (Homo sapiens, UniProt P08183)
Sequence (P08183 whole entry): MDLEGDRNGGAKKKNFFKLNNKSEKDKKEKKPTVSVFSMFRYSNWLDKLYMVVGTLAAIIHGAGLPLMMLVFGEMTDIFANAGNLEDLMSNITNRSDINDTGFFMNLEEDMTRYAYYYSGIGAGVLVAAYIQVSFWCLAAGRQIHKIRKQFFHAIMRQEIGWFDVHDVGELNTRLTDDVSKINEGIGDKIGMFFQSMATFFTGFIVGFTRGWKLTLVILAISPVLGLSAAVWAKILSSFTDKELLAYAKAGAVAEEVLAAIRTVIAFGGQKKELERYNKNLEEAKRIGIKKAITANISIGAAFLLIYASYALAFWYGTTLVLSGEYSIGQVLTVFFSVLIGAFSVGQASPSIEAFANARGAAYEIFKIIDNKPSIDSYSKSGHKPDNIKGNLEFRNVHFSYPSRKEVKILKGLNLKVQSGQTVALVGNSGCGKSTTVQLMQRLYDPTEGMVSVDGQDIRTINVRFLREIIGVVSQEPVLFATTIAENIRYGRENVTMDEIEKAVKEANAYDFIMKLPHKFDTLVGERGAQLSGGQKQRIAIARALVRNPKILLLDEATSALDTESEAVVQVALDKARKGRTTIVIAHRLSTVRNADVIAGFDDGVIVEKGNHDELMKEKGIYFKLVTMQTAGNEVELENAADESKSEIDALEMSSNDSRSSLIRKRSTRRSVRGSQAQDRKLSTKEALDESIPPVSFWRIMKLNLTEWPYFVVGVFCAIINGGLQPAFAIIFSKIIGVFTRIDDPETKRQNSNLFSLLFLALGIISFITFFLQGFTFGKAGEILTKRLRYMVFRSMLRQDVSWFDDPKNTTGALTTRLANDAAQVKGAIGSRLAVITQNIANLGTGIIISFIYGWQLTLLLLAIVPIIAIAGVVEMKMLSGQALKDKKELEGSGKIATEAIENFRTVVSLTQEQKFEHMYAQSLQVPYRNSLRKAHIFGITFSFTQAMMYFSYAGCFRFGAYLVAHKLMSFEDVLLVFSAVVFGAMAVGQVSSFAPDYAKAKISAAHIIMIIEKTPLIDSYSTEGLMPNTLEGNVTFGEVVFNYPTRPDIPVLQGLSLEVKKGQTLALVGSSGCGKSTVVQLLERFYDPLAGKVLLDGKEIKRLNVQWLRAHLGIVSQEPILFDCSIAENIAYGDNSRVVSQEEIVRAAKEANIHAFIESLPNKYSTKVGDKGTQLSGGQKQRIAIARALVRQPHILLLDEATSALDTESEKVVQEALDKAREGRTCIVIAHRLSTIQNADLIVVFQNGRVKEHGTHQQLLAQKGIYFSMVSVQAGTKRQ
Experiment: MDCK-MDR bi-directional permeability assay
Details: dog, MDCK-MDR1, pH 7.4

structure_notation | unit_abbrev | Papp B→A at 2 h, 5 µM
C/C1=C/C[C@@H](/C(C)=C/c2csc(C)n2)OC(=O)C[C@H](O)C(C)(C)C(=O)[C@H](C)[C@@H](O)[C@@H](C)CCC1 | ×10⁻⁶ cm/s | 46.8

###

Experiment: Plasma and brain compound concentrations after i.p. administration to mice
Format: in vivo, mice (B6C3F1)
Conditions: male, B6C3F1, mouse, brain/plasma, ip, 10 mg/kg

compound | Kp at 24 h
C/C(=C\c1csc(C)n1)[C@@H]1C[C@@H]2O[C@]2(C)CCC[C@H](C)[C@H](O)[C@@H](C)C(=O)C(C)(C)[C@@H](O)CC(=O)N1 [CNDR-90, ixabepilone, reference compound] | 2.6

###

# Kp at 2 h listing for each entry below
Assay: Plasma and brain compound concentrations after i.p. administration to mice
Format: in vivo, mice (B6C3F1)
Conditions: male, B6C3F1, mouse, brain/plasma, ip, 5 mg/kg

compound | Kp at 2 h
C/C(=C\c1csc(C)n1)[C@@H]1C[C@@H]2O[C@]2(C)CCC[C@H](C)[C@H](O)[C@@H](C)C(=O)C(C)(C)[C@@H](O)CC(=O)N1 [CNDR-90, ixabepilone, reference compound] | 0.4
C/C1=C/C[C@@H](/C(C)=C/c2csc(C)n2)OC(=O)C[C@H](O)C(C)(C)C(=O)[C@H](C)[C@@H](O)[C@@H](C)CCC1 | 7.6

###

Attribute: concentration at 2 h
Experiment: Plasma and brain compound concentrations after i.p. administration to mice
Assay type: in vivo, mice (B6C3F1)
Conditions: male, B6C3F1, mouse, brain, ip, 5 mg/kg

compound | unit_abbrev | concentration at 2 h
C/C1=C/C[C@@H](/C(C)=C/c2csc(C)n2)OC(=O)C[C@H](O)C(C)(C)C(=O)[C@H](C)[C@@H](O)[C@@H](C)CCC1 [CNDR-66, Epothilone D] | ng/g | 109
C/C(=C\c1csc(C)n1)[C@@H]1C[C@@H]2O[C@]2(C)CCC[C@H](C)[C@H](O)[C@@H](C)C(=O)C(C)(C)[C@@H](O)CC(=O)N1 [CNDR-90, ixabepilone, reference compound] | ng/g | 142
CC(=O)O[C@H]1C(=O)[C@@]2(C)[C@H]([C@H](OC(=O)c3ccccc3)[C@]3(O)C[C@H](OC(=O)[C@H](O)[C@@H](NC(=O)c4ccccc4)c4ccccc4)C(C)=C1C3(C)C)[C@]1(OC(C)=O)CO[C@@H]1C[C@@H]2O [Paclitaxel, reference compound] | ng/g | 85

###

Assay: Plasma and brain compound concentrations after i.p. administration to mice
Format: in vivo, mice (B6C3F1)
Conditions: male, B6C3F1, mouse, plasma, ip, 5 mg/kg
experimental_readout: concentration at 2 h

compound | result
C/C1=C/C[C@@H](/C(C)=C/c2csc(C)n2)OC(=O)C[C@H](O)C(C)(C)C(=O)[C@H](C)[C@@H](O)[C@@H](C)CCC1 [CNDR-66, Epothilone D] | 14 ng/mL
CC(=O)O[C@H]1C(=O)[C@@]2(C)[C@H]([C@H](OC(=O)c3ccccc3)[C@]3(O)C[C@H](OC(=O)[C@H](O)[C@@H](NC(=O)c4ccccc4)c4ccccc4)C(C)=C1C3(C)C)[C@]1(OC(C)=O)CO[C@@H]1C[C@@H]2O [Paclitaxel, reference compound] | 1290 ng/mL
C/C(=C\c1csc(C)n1)[C@@H]1C[C@@H]2O[C@]2(C)CCC[C@H](C)[C@H](O)[C@@H](C)C(=O)C(C)(C)[C@@H](O)CC(=O)N1 [CNDR-90, ixabepilone, reference compound] | 319 ng/mL

###

Biological target: P-gp (human MDR1) (Homo sapiens, UniProt P08183)
Assay: MDCK-MDR bi-directional permeability assay
Details: dog, MDCK-MDR1, pH 7.4
experimental_readout: Papp A→B at 2 h, 5 µM (×10⁻⁶ cm/s)

structure_notation | experimental_readout | unit_abbrev | readout_number
C/C1=C/C[C@@H](/C(C)=C/c2csc(C)n2)OC(=O)C[C@H](O)C(C)(C)C(=O)[C@H](C)[C@@H](O)[C@@H](C)CCC1 | Papp A→B at 2 h, 5 µM | ×10⁻⁶ cm/s | 30
